# assayed-target: Cholecystokinin receptor type A (Homo sapiens, UniProt P32238); further: in other assays of this panel Not Active means under 50% inhibition at 10 µM
# Sequence (P32238 whole entry): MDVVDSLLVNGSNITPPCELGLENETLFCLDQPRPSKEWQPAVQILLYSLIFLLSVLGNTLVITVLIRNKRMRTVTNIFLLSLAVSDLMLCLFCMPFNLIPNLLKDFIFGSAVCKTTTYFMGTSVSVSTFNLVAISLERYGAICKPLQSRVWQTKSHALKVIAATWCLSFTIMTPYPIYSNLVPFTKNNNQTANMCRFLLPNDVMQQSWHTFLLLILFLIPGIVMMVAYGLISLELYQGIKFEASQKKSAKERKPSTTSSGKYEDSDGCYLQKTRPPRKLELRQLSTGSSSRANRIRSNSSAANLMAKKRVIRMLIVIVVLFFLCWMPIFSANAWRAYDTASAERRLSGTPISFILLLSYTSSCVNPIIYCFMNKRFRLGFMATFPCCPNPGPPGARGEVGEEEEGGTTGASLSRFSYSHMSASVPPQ
# Assay type: cell membranes, Membrane
# assay-setup: 1321-n1
endpoint-name: IC50

# count of solved cases: 5
compound	IC50
NNCCc1ccccc1	Not Active
C[C@@H]1O[C@@H](O[C@H]2C[C@@H](O)[C@]3(CO)[C@H]4[C@H](O)C[C@]5(C)[C@@H](C6=CC(=O)OC6)CC[C@]5(O)[C@@H]4CC[C@]3(O)C2)[C@H](O)[C@H](O)[C@H]1O	Not Active
N[C@@H](Cn1ccc(=O)c(O)c1)C(=O)O	Not Active
CN1CCN(c2c(F)cc3c(=O)c(C(=O)O)cn(CCF)c3c2F)CC1	Not Active
CN(C)C(=O)Oc1cccc([N+](C)(C)C)c1.[Br-] [NEOSTIGMINE BROMIDE]	Not Active

Next:
IC50 reported for this compound O=C(O)CCCc1cccs1 : Not Active

---

Measured pKi, listed per entry for reference.
# method: DRUGMATRIX: Leukotriene, BLT (LTB4) radioligand binding (ligand: [3H]LTB4)
# Format: cell membranes, Membrane
# assay-setup: u-937; Not Active = under 50% inhibition at 10 µM; read-out: Ki
By convention, pKi is the negative base-10 log of a molar concentration.

pKi reported for this molecule CCCCCCCCNC(C)C(O)c1ccc(SC(C)C)cc1 (stereo not drawn) [SULOCTIDIL] : 6.44

pKi reported for this molecule CCc1ccc(CCOc2ccc(CC3SC(=O)NC3=O)cc2)nc1 (stereo not drawn) [PIOGLITAZONE] : 4.66

pKi reported for this molecule N=C(N)c1ccc(OCCCCCOc2ccc(C(=N)N)cc2)cc1 [PENTAMIDINE] : 7.21

---

# assayed-target: Progesterone receptor (Bos taurus, UniProt Q690N0)
# Sequence (Q690N0 whole entry): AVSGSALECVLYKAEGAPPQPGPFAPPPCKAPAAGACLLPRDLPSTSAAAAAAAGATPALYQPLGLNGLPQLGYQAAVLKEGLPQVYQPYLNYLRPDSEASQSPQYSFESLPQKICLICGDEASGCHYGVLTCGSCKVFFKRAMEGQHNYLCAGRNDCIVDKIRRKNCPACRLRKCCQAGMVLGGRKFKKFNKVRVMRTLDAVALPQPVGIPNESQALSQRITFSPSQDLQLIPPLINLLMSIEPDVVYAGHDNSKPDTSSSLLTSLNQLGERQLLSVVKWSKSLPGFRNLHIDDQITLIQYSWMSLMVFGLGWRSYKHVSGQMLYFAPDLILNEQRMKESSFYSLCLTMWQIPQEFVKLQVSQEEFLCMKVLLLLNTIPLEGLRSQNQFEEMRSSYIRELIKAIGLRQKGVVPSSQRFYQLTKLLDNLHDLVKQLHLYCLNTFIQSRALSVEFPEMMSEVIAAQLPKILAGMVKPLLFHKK
# method: DRUGMATRIX: Progesterone radioligand binding (ligand: [3H] R-5020)
# Type: tissue-based, Uterus
# assay-setup: Not Active = under 50% inhibition at 10 µM

compound	IC50
CC(C)c1c(C(=O)Nc2ccccc2)c(-c2ccccc2)c(-c2ccc(F)cc2)n1CC[C@@H](O)C[C@@H](O)CC(=O)O [ATORVASTATIN]	Not Active
C[C@H]1COc2c(N3CCN(C)CC3)c(F)cc3c(=O)c(C(=O)O)cn1c23.C[C@H]1COc2c(N3CCN(C)CC3)c(F)cc3c(=O)c(C(=O)O)cn1c23.O [LEVOFLOXACIN]	Not Active
CCn1cc(C(=O)O)c(=O)c2cc(F)c(N3CCNC(C)C3)c(F)c21 (stereo not drawn) [LOMEFLOXACIN]	Not Active

---

# assayed-target: Muscarinic acetylcholine receptor M5 (Homo sapiens, UniProt P08912); further: in other assays of this panel Not Active means under 50% inhibition at 10 µM
# Format: cell membranes, CHO-K1, Membrane
# assay-setup: cho-k1; read-out: Ki
endpoint-name: Ki (µM)
Use µM as the unit, but write only the number.

Ki reported for this sequence TRANSPLATIN : 4.26

---

# assayed-target: Muscarinic acetylcholine receptor M5 (Homo sapiens, UniProt P08912); further: in other assays of this panel Not Active means under 50% inhibition at 10 µM
# Sequence (P08912 whole entry): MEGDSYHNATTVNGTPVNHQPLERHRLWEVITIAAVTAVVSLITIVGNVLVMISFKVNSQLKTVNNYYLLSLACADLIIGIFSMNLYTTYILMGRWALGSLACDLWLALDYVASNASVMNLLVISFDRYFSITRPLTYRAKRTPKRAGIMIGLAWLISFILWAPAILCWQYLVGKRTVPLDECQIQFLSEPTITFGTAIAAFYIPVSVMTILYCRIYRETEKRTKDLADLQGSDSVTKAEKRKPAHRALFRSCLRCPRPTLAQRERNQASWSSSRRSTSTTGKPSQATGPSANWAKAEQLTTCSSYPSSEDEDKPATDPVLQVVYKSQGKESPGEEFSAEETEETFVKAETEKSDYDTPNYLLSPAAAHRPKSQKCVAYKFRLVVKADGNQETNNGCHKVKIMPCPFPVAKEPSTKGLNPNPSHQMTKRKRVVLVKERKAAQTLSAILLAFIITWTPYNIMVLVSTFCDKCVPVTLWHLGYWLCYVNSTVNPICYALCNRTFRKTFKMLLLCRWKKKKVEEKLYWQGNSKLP
# Type: cell membranes, CHO-K1, Membrane
# assay-setup: read-out: Ki
pKi: −log10 of the molar value.
Decide using pKi: a value greater than or equal to 7 is Criterion met, a smaller one is Criterion not met.

Solved entries:
> print(dat)
                                   molecule              group
1  CCCCCCCCNC(C)C(O)c1ccc(SC(C)C)cc1 (stereo not drawn) [SULOCTIDIL]  Criterion not met
2  CN1CCC(=C2c3ccccc3CC(=O)c3sccc32)CC1 [KETOTIFEN]  Criterion not met
3  N=C(N)c1ccc(OCCCCCOc2ccc(C(=N)N)cc2)cc1 [PENTAMIDINE]  Criterion not met
4  CN1CCN(C(c2ccccc2)c2ccccc2)CC1 [CYCLIZINE]  Criterion not met

[ask] Can CCN(CC)CCCC(C)Nc1c2ccc(Cl)cc2nc2ccc(OC)cc12 (stereo not drawn) [QUINACRINE] be said to have pKi at or above 7?
[reply] Criterion not met

[ask] Can CN(C)CCC=C1c2ccccc2CCc2ccccc21 [AMITRIPTYLINE] be said to have pKi at or above 7?
[reply] Criterion met

[ask] Can CN1CCCC(CN2c3ccccc3Sc3ccccc32)C1 (stereo not drawn) [MEPAZINE] be said to have pKi at or above 7?
[reply] Criterion met

[ask] Can Cc1c(O)cccc1C(=O)N[C@@H](CSc1ccccc1)[C@H](O)CN1C[C@H]2CCCC[C@H]2C[C@H]1C(=O)NC(C)(C)C be said to have pKi at or above 7?
[reply] Criterion not met

---

Measured pIC50, listed per entry for reference.
# assayed-target: Mu-type opioid receptor (Homo sapiens, UniProt P35372)
# Sequence (P35372 whole entry): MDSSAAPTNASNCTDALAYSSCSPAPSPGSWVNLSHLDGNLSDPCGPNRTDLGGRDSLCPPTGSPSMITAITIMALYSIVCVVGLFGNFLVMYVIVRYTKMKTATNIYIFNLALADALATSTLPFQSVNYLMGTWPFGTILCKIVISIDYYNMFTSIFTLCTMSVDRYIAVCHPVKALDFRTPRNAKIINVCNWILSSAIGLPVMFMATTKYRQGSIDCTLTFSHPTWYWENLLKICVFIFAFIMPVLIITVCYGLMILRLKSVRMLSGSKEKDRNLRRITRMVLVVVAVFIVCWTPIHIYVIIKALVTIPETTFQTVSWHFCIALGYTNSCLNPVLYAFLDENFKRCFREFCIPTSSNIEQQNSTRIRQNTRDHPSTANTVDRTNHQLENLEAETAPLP
# method: DRUGMATRIX: Opiate mu (OP3, MOP) radioligand binding (ligand: [3H] Diprenorphine)
# Assay type: cell membranes, CHO-K1, Membrane
# assay-setup: Not Active = under 50% inhibition at 10 µM; read-out: IC50
By convention, pIC50 is the negative base-10 log of a molar concentration.

# count of solved cases: 3
> print(dat)
                                   compound  quantitative.result
1  COC(=O)[C@H]1[C@H]2C[C@@H]3c4[nH]c5cc(OC)ccc5c4CCN3C[C@H]2C[C@@H](OC(=O)c2cc(OC)c(OC)c(OC)c2)[C@@H]1OC                 5.38
2  Clc1ccc(COC(Cn2ccnc2)c2ccc(Cl)cc2Cl)c(Cl)c1 (centres undefined)                 5.22
3  Cc1c(O)cccc1C(=O)N[C@@H](CSc1ccccc1)[C@H](O)CN1C[C@H]2CCCC[C@H]2C[C@H]1C(=O)NC(C)(C)C                 4.84

pIC50 reported for this compound CC(C)C[C@H]1C(=O)N2CCC[C@H]2[C@]2(O)O[C@](NC(=O)[C@@H]3C=C4c5cccc6[nH]cc(c56)C[C@H]4N(C)C3)(C(C)C)C(=O)N12 : 5.61

---

# method: DRUGMATRIX: Glutamate, NMDA, Phencyclidine radioligand binding (ligand: [3H] TCP)
# Format: cell membranes, Rattus norvegicus, Wistar, Cerebral cortex, Membrane
# assay-setup: Not Active = under 50% inhibition at 10 µM
endpoint-name: Ki

# count of solved cases: 10
compound	Ki
CC(C)C[C@H]1C(=O)N2CCC[C@H]2[C@]2(O)O[C@](NC(=O)[C@@H]3C=C4c5cccc6[nH]cc(c56)C[C@H]4N(C)C3)(C(C)C)C(=O)N12 [ERGOCRYPTINE]	Not Active
C[N+](C)(C)C[C@H](O)CC(=O)[O-] [LEVOCARNITINE]	Not Active
C[S+](C)[O-] [DIMETHYL SULFOXIDE]	Not Active
O=c1c(-c2ccc(O)cc2)coc2cc(O)cc(O)c12 [GENISTEIN]	Not Active
CC(C)NCC(O)c1ccccc1Cl (stereo not drawn) [CLORPRENALINE]	Not Active
CCN(CC)CCCC(C)Nc1c2ccc(Cl)cc2nc2ccc(OC)cc12 (stereo not drawn) [QUINACRINE]	Not Active
C[C@@H]1C/C=C/C=C/C=C/C=C/[C@H](O[C@@H]2O[C@H](C)[C@@H](O)[C@H](N)[C@@H]2O)C[C@@H]2O[C@](O)(C[C@@H](O)C[C@H]3O[C@@H]3/C=C/C(=O)O1)C[C@H](O)[C@H]2C(=O)O [NATAMYCIN]	Not Active
N[C@@H](Cn1ccc(=O)c(O)c1)C(=O)O [L-MIMOSINE]	Not Active
O=C(O)COc1ccc(C(=O)c2cccs2)c(Cl)c1Cl	Not Active
CCOc1nc2cccc(C(=O)O)c2n1Cc1ccc(-c2ccccc2-c2nnn[nH]2)cc1	Not Active

Ki reported for this compound CCc1ccc(CCOc2ccc(CC3SC(=O)NC3=O)cc2)nc1 (stereo not drawn) [PIOGLITAZONE] : Not Active

Ki reported for this compound CN1C[C@@H]2C[C@H]1CN2c1cc2c(cc1F)c(=O)c(C(=O)O)cn2C1CC1 [DANOFLOXACIN] : Not Active

Ki reported for this compound Cn1c(=O)c2c(ncn2C)n(C)c1=O [CAFFEINE] : Not Active

Ki reported for this compound N=C(N)c1ccc(OCCCCCOc2ccc(C(=N)N)cc2)cc1 [PENTAMIDINE] : Not Active

Ki reported for this compound CN1C(=O)CN=C(c2ccccc2)c2cc([N+](=O)[O-])ccc21 [NIMETAZEPAM] : Not Active

Ki reported for this compound COc1ccc2c(c1OC)C(=O)O[C@@H]2[C@H]1c2c(cc3c(c2OC)OCO3)CCN1C [NOSCAPINE] : Not Active

Ki reported for this compound CN1CCCC(CN2c3ccccc3Sc3ccccc32)C1 (stereo not drawn) [MEPAZINE] : Not Active

Ki reported for this compound CCOC(=O)c1ncn2c1CN(C)C(=O)c1cc(F)ccc1-2 [FLUMAZENIL] : Not Active
